# System: NIH3T3
# run_description: Cytotoxicity against mouse NIH/3T3 cells assessed as reduction in cell viability
# Assay type: cell-based
readout_name: pIC50
One number for each entry, as −log10 of the molar value.

// fetch NIH3T3 pIC50 for CC(C)C(=O)c1c(Nc2ccc(F)c(F)c2F)[nH]c2c(F)cc(F)cc2c1=O
4.18

====

# run_description: Metabolic stability in rat microsomes assessed as parent compound remaining measured after 30 mins
# Format: ADME, Microsome
# condition_context: read-out: Stability
readout_name: remaining at 0.5 h (%)
Answers are plain numbers, in %.

Record request: remaining at 0.5 h value, item CC(C)C(=O)c1c(Nc2ccc(F)c(F)c2F)[nH]c2c(F)cc(F)cc2c1=O
44

====

# run_description: Metabolic stability in human microsomes assessed as parent compound remaining measured after 30 mins
# Format: ADME, Microsome
# condition_context: read-out: Stability
readout_name: remaining at 0.5 h (%)
Give bare numbers, in %.

What value of measured remaining at 0.5 h is listed for CC(C)C(=O)c1c(Nc2ccc(F)c(F)c2F)[nH]c2c(F)cc(F)cc2c1=O ?
52

====

# run_description: Half life in rat at 2 mg/kg, iv
# Assay type: ADME, organism-based
# condition_context: in vivo
readout_name: half-life (h)
Give bare numbers, in h.

// query half-life value for entry CC(C)C(=O)c1c(Nc2ccc(F)c(F)c2F)[nH]c2c(F)cc(F)cc2c1=O
4.6

====

# run_description: Cytotoxicity against African green monkey Vero cells assessed as reduction in cell viability
# Format: cell-based
# condition_context: chlorocebus sabaeus, Vero cells
readout_name: CC50

// returns reported CC50 for input CC(C)C(=O)c1c(Nc2ccc(F)cc2F)[nH]c2c(Cl)cc(Cl)c(Cl)c2c1=O
> 25 µM

====

# Test system: Vero
# run_description: Cytotoxicity against African green monkey Vero cells assessed as reduction in cell viability
# Assay type: cell-based
# condition_context: chlorocebus sabaeus, vero
readout_name: CC50

The examples below pair each entry with its known result.
smiles_input=CC(=O)c1c(OCc2ccc(Cl)c(Cl)c2)[nH]c2c(F)cc(F)cc2c1=O measurement="> 25 µM"
smiles_input=CC(=O)c1c(Nc2ccc(Br)cc2)[nH]c2c(F)cc(F)cc2c1=O measurement="> 25 µM"
smiles_input=CC(=O)c1c(Nc2ccc(F)cc2F)[nH]c2c(F)cc(Cl)cc2c1=O measurement="> 25 µM"

Provide CC50 for all items below, preserving their order.
1. CC(C)C(=O)c1c(Nc2ccc(F)c(F)c2F)[nH]c2c(F)cc(F)cc2c1=O
2. CC(C)C(=O)c1c(Nc2ccc(F)cc2F)[nH]c2c(C(F)(F)F)cc(Cl)cc2c1=O
3. CC(=O)c1c(Nc2ccc(F)cc2F)[nH]c2c(Cl)cc(Cl)c(Cl)c2c1=O
4. CC(=O)c1c(NCc2ccc(F)cc2F)[nH]c2c(F)cc(F)cc2c1=O
5. CC(C)C(=O)c1c(Nc2ccc(F)c(F)c2F)[nH]c2c(Cl)ccc(Cl)c2c1=O
6. CC(=O)c1c(NCc2ccc(F)cc2)[nH]c2c(F)cc(F)cc2c1=O

> 25 µM
7.3 µM
> 25 µM
> 25 µM
10.9 µM
> 25 µM

For the compound shown here, CC(=O)c1c(Nc2ccc(F)cc2F)[nH]c2c(C(F)(F)F)cc(Cl)cc2c1=O , give the reported CC50.
7.3 µM

====

# run_description: Clearance in rat at 2 mg/kg, iv
# Type: ADME, organism-based
# condition_context: in vivo
readout_name: clearance (mL/min/kg)
Answers are plain numbers, in mL/min/kg.

Which clearance value is on record for CC(C)C(=O)c1c(Nc2ccc(F)c(F)c2F)[nH]c2c(F)cc(F)cc2c1=O ?
1.17

====

# Tested on: Vero
# run_description: Cytotoxicity against African green monkey Vero cells assessed as reduction in cell viability
# Type: cell-based
# condition_context: chlorocebus sabaeus, vero
readout_name: CC50

smiles_input=CC(=O)c1c(N2CCOCC2)[nH]c2c(F)cc(F)cc2c1=O measurement="> 25 µM"
smiles_input=COc1cccc(Nc2[nH]c3c(F)cc(F)cc3c(=O)c2C(C)=O)c1 measurement="> 25 µM"

Now consider the entry below.
Value wanted: CC50 (Vero) of entry CC(C)C(=O)c1c(Nc2ccc(F)cc2F)[nH]c2c(F)cc(F)cc2c1=O
> 25 µM

====

# System: HFL1
# run_description: Cytotoxicity against human HFL1 cells assessed as reduction in cell viability
# Type: cell-based
readout_name: pIC50
Answers are plain numbers, as −log10 of the molar value.

Please report the recorded pIC50 for CC(C)C(=O)c1c(Nc2ccc(F)c(F)c2F)[nH]c2c(F)cc(F)cc2c1=O .
4.81

====

# tested_target: Voltage-gated inwardly rectifying potassium channel KCNH2 (Homo sapiens, UniProt Q12809)
# Sequence (Q12809 whole entry): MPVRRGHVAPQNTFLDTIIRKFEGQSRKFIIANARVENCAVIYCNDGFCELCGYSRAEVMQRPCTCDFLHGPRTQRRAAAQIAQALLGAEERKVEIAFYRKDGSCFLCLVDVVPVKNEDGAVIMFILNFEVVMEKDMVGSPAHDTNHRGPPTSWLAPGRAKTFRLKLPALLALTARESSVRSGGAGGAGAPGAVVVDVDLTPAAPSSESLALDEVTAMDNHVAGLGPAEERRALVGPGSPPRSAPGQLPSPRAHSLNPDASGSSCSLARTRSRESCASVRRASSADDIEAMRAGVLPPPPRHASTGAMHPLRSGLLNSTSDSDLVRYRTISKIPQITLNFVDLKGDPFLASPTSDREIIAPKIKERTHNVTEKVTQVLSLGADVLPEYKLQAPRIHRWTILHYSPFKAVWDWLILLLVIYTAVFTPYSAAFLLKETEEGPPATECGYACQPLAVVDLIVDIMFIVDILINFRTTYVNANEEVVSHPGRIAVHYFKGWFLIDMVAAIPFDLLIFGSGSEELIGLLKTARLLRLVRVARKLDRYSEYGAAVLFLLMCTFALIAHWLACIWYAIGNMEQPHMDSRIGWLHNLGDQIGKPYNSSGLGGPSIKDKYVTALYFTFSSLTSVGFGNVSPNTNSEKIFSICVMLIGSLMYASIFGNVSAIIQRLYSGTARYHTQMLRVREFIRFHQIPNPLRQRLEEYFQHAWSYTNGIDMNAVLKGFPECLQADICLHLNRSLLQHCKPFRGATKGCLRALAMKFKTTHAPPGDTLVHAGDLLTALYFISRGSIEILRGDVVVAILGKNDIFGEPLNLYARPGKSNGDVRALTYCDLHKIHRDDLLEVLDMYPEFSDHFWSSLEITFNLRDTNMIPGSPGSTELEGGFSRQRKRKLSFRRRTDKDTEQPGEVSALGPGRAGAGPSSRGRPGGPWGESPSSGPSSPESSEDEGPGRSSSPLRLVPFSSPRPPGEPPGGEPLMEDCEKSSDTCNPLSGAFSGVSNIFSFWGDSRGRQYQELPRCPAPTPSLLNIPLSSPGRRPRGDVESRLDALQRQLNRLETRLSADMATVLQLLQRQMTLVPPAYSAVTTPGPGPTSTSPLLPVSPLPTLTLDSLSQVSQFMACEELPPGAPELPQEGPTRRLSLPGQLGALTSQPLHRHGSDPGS
readout_name: pIC50
Answers are plain numbers, as −log10 of the molar value.

Please look up its pIC50: CC(C)C(=O)c1c(Nc2ccc(F)c(F)c2F)[nH]c2c(F)cc(F)cc2c1=O
5.16

====

# Test system: CHO-K1
# run_description: Cytotoxicity against CHOK1 cells assessed as reduction in cell viability
# Format: cell-based
# condition_context: Cricetulus griseus
readout_name: pIC50
Answers are plain numbers, as −log10 of the molar value.

Request - read-out pIC50 | tested on CHO-K1 | compound CC(C)C(=O)c1c(Nc2ccc(F)c(F)c2F)[nH]c2c(F)cc(F)cc2c1=O
5.16

====

# Test system: Vero
# run_description: Cytotoxicity against African green monkey Vero cells assessed as reduction in cell viability
# Format: cell-based
# condition_context: chlorocebus sabaeus, vero
What CC50 was measured for each of the following?

Solved cases (2 shown):
smiles_input=CC(=O)c1c(Nc2ccc(F)cc2F)[nH]c2c(F)cc(F)cc2c1=O measurement="> 25 µM"
smiles_input=CCCCNc1[nH]c2c(F)cc(F)cc2c(=O)c1C(C)=O measurement="> 25 µM"

Quick batch: CC50 for everything below.
1. CC(=O)c1c(Nc2ccc(F)cc2F)[nH]c2c([N+](=O)[O-])cc(Cl)cc2c1=O
2. COc1ccc(CNc2[nH]c3c(F)cc(F)cc3c(=O)c2C(C)=O)cc1
3. CC(=O)c1c(Nc2ccc(Cl)cc2)[nH]c2c(F)cc(F)cc2c1=O
4. CC(=O)c1c(N2CCCCC2)[nH]c2c(F)cc(F)cc2c1=O
5. CC(=O)c1c(NC(C)C)[nH]c2c(C(F)(F)F)cc(Cl)cc2c1=O
6. CC(=O)c1c(Nc2ccc(F)c(F)c2F)[nH]c2c(F)cc(F)cc2c1=O

> 25 µM
> 25 µM
> 25 µM
> 25 µM
> 25 µM
> 25 µM

Each molecule below has a reported value. Please supply its CC50.
1. CC(C)C(=O)c1c(Nc2ccc(F)c(F)c2F)[nH]c2c(Cl)cc(Cl)c(Cl)c2c1=O
2. COc1ccc(Nc2[nH]c3c(F)cc(F)cc3c(=O)c2C(C)=O)cc1

6.4 µM
> 25 µM
